Give inhibition at 0.1 µM for every item shown.
Target: Monoamineoxidase B type human-derived enzyme (Homo sapiens)
Sequence (P27338 1-520): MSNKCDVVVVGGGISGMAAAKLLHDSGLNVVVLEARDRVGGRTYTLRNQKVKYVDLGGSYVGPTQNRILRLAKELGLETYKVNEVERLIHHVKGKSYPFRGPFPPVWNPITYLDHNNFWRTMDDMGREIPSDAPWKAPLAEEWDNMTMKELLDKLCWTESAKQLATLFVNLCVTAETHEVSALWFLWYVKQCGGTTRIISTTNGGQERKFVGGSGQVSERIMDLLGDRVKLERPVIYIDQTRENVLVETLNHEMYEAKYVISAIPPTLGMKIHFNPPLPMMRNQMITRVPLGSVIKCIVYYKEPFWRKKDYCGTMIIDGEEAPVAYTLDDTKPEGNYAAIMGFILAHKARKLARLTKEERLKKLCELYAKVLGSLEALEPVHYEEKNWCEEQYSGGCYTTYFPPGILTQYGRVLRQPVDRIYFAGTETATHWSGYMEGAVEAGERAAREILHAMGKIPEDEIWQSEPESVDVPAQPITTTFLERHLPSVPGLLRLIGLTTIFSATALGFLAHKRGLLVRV
Assay: Inhibitory effects on the activity of MAO-B (Amplex Red fluorescence, benzylamine substrate)
Assay type: biochemical
Conditions: treatment concentration 100 nM

For NC(=O)OCc1cc(-c2ccc(OCc3ccc(C(F)(F)F)cc3)cc2)no1 , what is its reported inhibition at 0.1 µM?
95.5%

For NC(=O)OCc1cc(-c2ccc(OCc3cccc(C(F)(F)F)c3)cc2)no1 , what is its reported inhibition at 0.1 µM?
96.2%

For NC(=O)OCc1cc(-c2ccc(OCc3cc(F)ccc3F)cc2)no1 , what is its reported inhibition at 0.1 µM?
96.7%

For NC(=O)OCc1cc(-c2ccc(OCc3ccc(F)cc3F)cc2)no1 , what is its reported inhibition at 0.1 µM?
97.1%

For NC(=O)OCc1cc(-c2ccc(OCc3ccc(Cl)cc3Cl)cc2)no1 , what is its reported inhibition at 0.1 µM?
95.7%
